- Tested on: HT-29
- assay-method-text: NCI tumour cell line growth inhibition, 48 h
Calls of active or inactive are those of the source. Rule as the data show it: active = GI50 up to about 1.1 µM and inactive = higher.
Possible outcomes: active, inactive

compound | test-system | classification
O=c1c2cc(-c3ccccc3)sc2nc2n1N=C(c1ccccc1)CS2 | HT-29 | inactive
COc1ccc(/C=N/C23CC4CC(CC(C4)C2)C3)cc1 | HT-29 | inactive
OCCc1ccsc1-c1sc(-c2cc(CCO)c(-c3sc(-c4cc(CCO)c(-c5sccc5CCO)s4)cc3CCO)s2)cc1CCO | HT-29 | inactive
CCSc1c2cc(OC)ccc2nc2ccc(OC)cc12 | HT-29 | inactive
COP(=O)(OC)/C(=C\C1=CN(C(c2ccccc2)(c2ccccc2)c2ccccc2)CN1)NC=O | HT-29 | inactive
CCCCNC(=O)Nc1c(C(N)=O)c2n(c1C(=O)OCC)CCCCC2 | HT-29 | inactive
CN(C)Cc1cc(/N=N/c2ccccc2)ccc1O | HT-29 | inactive
CCOC(=O)c1c(-c2ccc(Br)cc2)ccn1C | HT-29 | inactive
BrC1=CCC23CC=C(Br)[C@H]4CC2(COC3)C[C@@H]1O4 (some centres undefined) | HT-29 | inactive
CC1OC(O[C@@H]2C=C3CC[C@@H]4[C@H](CC[C@]5(C)[C@@H](c6ccc(=O)oc6)CC[C@]45O)[C@@]3(C)CC2)C(O)C(O)C1O (some centres undefined) | HT-29 | active
CS(=O)(=O)c1ccc(C(=O)O[C@@H]2C(=O)N3CC[C@H]4OC(O)[C@@H]2[C@H]43)cc1 (some centres undefined) | HT-29 | inactive
C=CCOC1=C(OC(C)=O)C(C2COC(C)(C)O2)OC1=O (centres undefined) | HT-29 | inactive
COc1cccc(-c2cc(O)c3cccnc3n2)c1 | HT-29 | active
CC(C)(C)OC(=O)NCC(=O)N(CCc1ccc(Cl)c(Cl)c1)CCN1CCCC1 | HT-29 | inactive
CC(C)CNC(=O)Cn1c2c(c3ccccc31)CCCC2 | HT-29 | inactive
COc1ccc(/N=N/N2CCCC2)cc1 | HT-29 | inactive
Clc1ccc(C2ON=C(c3ccccc3)N2C23CC4CC(CC(C4)C2)C3)cc1 (centres undefined) | HT-29 | inactive
COC(=O)c1cc(OS(=O)(=O)C(F)(F)F)c(=O)n2c1CCCC2 | HT-29 | inactive
C=C1C[C@]23C[C@@]1(O)CC[C@H]2[C@@]12C=C[C@H](O)[C@@](C)(C(=O)O1)[C@H]2[C@@H]3C(=O)O | HT-29 | inactive
COCOc1c(C(O[Si](C)(C)C(C)(C)C)c2cnc(Sc3ccccc3)n2C)ccc(OC)c1OC (centres undefined) | HT-29 | inactive
Cn1cc(NC(=O)Nc2cc(C(=O)Nc3cc(C(=O)Nc4ccc5cc(S(=O)(=O)O)cc(S(=O)(=O)O)c5c4)n(C)c3)n(C)c2)cc1C(=O)Nc1cc(C(=O)Nc2ccc3cc(S(=O)(=O)O)cc(S(=O)(=O)O)c3c2)n(C)c1 | HT-29 | inactive
COC(=O)C1=C(C)N(NC(N)=O)C2(N)N(NC(N)=O)C(C)=C(C(=O)OC)C12C#N (centres undefined) | HT-29 | inactive
COC(=O)c1c(C)[nH]c2c1cc(O)c1nc(C)c(C)nc12 | HT-29 | inactive
Cn1c(O)c(C2=Nc3ccccc3C2=O)c2ccccc21 | HT-29 | inactive
COc1cccc(N2C(=O)CSC2c2c[nH]c3ccccc23)c1 (centres undefined) | HT-29 | inactive
CO/C=C(/C(=O)OC)c1ccccc1[C@H]1C[C@@H]1c1ccc(OC)cc1 | HT-29 | inactive
Cc1ccc(-n2cc(-c3ccc(Cl)cc3)c3c(=N)n(N)cnc32)cc1 | HT-29 | inactive
COc1ccc2c([nH]c3c(O)c(-c4c(C)cc5c([nH]c6c(CC=C(C)C)c(OC)ccc65)c4O)c(C)cc32)c1CC=C(C)C | HT-29 | inactive
CCC1=NC(CO)[C@H](c2ccccc2)O1 (some centres undefined) | HT-29 | inactive
CCCCCCCCCCCC(=O)OCC(O)CO (centres undefined) [GLYCEROL MONOLAURATE] | HT-29 | inactive
CC(=O)C1(c2ccccc2)CCCN(C)CC1 (centres undefined) | HT-29 | inactive
O=[N+]([O-])C(/C=C(\Cl)[N+](=O)[O-])=C(N1CCOCC1)N1CCOCC1 | HT-29 | inactive
Cc1cc(S(=O)(=O)NC2=Nc3ccc(Cl)cc3C(c3ccccc3)N2)c(S)cc1Cl (centres undefined) | HT-29 | inactive
S=c1nc2c(c[nH]1)C1c3ccccc3C2c2ccccc21 | HT-29 | inactive
O=C1C=C(Nc2ccccc2C(=O)CC(=O)C(=O)Nc2ccc(Cl)c(Cl)c2)c2ccccc2C1=O | HT-29 | inactive
C=CCCCC1CCCNC1=S (centres undefined) | HT-29 | inactive
NC(=O)N/N=C(\C(=O)C(=O)Nc1ccc(Cl)c(C(F)(F)F)c1)c1nc2ccc(C(=O)c3ccccc3)cc2nc1O | HT-29 | inactive
CCCCN(CCCC)C(=O)C(=O)CC(=O)/C=C/c1ccccc1 | HT-29 | inactive
CCOC(=O)N1CCc2cc(OC)c(OC)cc2/C1=C\c1ccc(OC)c(OC)c1 | HT-29 | inactive

----------
- System: SF-268
- assay-method-text: NCI tumour cell line growth inhibition, 48 h
Calls of active or inactive are those of the source. Rule as the data show it: active = GI50 up to about 1.1 µM and inactive = higher.

compound | test-system | GI50
O=CC(O)C(O)C(O)C(O)COP(=O)(O)Cc1ccccc1 (stereo unspecified) | SF-268 | > 10 µM (inactive)
O=C1Oc2ccccc2C(=O)/C1=C1/C=C(c2ccccc2)SS1 | SF-268 | 86.7 µM (inactive)
CO/C=C(/C(=O)OC)c1ccccc1[C@H]1C[C@@H]1c1ccc(OC)cc1 | SF-268 | 25.1 µM (inactive)
CC(=O)C1(C(=O)C(=[N+]=[N-])S(=O)(=O)c2ccccc2)CC1 | SF-268 | > 100 µM (inactive)
CCSc1c2cc(OC)ccc2nc2ccc(OC)cc12 | SF-268 | 10.9 µM (inactive)
O=c1[nH]nc(-c2ccccc2)n1/N=C/c1ccco1 | SF-268 | > 100 µM (inactive)
CC(C)(C)C1CCC2(CC1)c1[nH]c3ccccc3c1C1(CCC(C(C)(C)C)CC1)c1[nH]c3ccccc3c12 (stereo unspecified) | SF-268 | > 100 µM (inactive)
COc1nn(Cc2ccccn2)c2ccc([N+](=O)[O-])cc12 | SF-268 | > 100 µM (inactive)
Nc1ccc2nc3n(c2c1)C(c1c(F)cccc1F)SC3 (stereo unspecified) | SF-268 | > 100 µM (inactive)
CO[P@]1(=O)O[C@@H](c2ccccc2)[C@H](O)[C@]1(O)c1ccccc1 | SF-268 | > 100 µM (inactive)
C#C[C@H]1CCCCCC1O (stereo partly specified) | SF-268 | > 100 µM (inactive)

----------
- System: 786-0
- assay-method-text: NCI tumour cell line growth inhibition, 48 h
Activity calls are given as the source filed them. No stated cut-off is given here; in the data, active = GI50 up to about 1.1 µM and inactive = higher.
Catalogue of GI50 values
reported-metric: GI50

compound | test-system | reported-metric | result
COC(=O)c1cc(OS(=O)(=O)C(F)(F)F)c(=O)n2c1CCCC2 | 786-0 | GI50 | > 100 µM (inactive)
Cc1ccc(-c2cc(-c3cc(-c4ccc(C)cc4C)[nH]n3)[nH]n2)c(C)c1 | 786-0 | GI50 | 13 µM (inactive)
CCCCCCCCCCCc1noc2c1C(=O)C(O)CC2 (stereo unspecified) | 786-0 | GI50 | 17.9 µM (inactive)
O=C1OC2(C(F)(F)F)Oc3ccccc3CN2C12CCCCC2 (stereo unspecified) | 786-0 | GI50 | 35.3 µM (inactive)
CC(=O)C1(C(=O)C(=[N+]=[N-])S(=O)(=O)c2ccccc2)CC1 | 786-0 | GI50 | > 100 µM (inactive)
Cc1sc2nc(-c3cccc([N+](=O)[O-])c3)c(/C=N/N=C(N)N)n2c1C | 786-0 | GI50 | 1.83 µM (inactive)

----------
Entries annotated with measured GI50
- Test system: NCI-H23
- assay-method-text: NCI tumour cell line growth inhibition, 48 h
Active and inactive are the calls of the source. No stated cut-off is given here; in the data, active = GI50 up to about 1.1 µM and inactive = higher.

compound | GI50
COCC1N=C(c2ccc(OC)c(OCc3ccccc3)c2OC)O[C@H]1c1ccccc1 (stereo not given in full) | 17.7 µM (inactive)
O=c1c2cccnc2ncn1CCN1CCCC1 | > 100 µM (inactive)
CC1OC(O[C@@H]2C=C3CC[C@@H]4[C@H](CC[C@]5(C)[C@@H](c6ccc(=O)oc6)CC[C@]45O)[C@@]3(C)CC2)C(O)C(O)C1O (stereo not given in full) | 0.0475 µM (active)
Cc1ccc(-c2cc(-c3cc(-c4ccc(C)cc4C)[nH]n3)[nH]n2)c(C)c1 | 19.8 µM (inactive)
CCCCCCCCCCCC(=O)OCC(O)CO (stereo not given) [GLYCEROL MONOLAURATE] | 67.3 µM (inactive)
Cn1cc(-c2ccc3c4ccccc4n(C)c3c2)c2ccccc21 | > 100 µM (inactive)
CC1CN=C(Nc2ccc(F)c(Cl)c2)S1 (stereo not given) | 51.5 µM (inactive)
COP(=O)(O)C(N)Cc1c[nH]c2ccccc12 (stereo not given) | > 100 µM (inactive)
COc1cccc(N2C(=O)CSC2c2c[nH]c3ccccc23)c1 (stereo not given) | > 100 µM (inactive)
CCCCN(CCCC)C(=O)C(=O)CC(=O)/C=C/c1ccccc1 | > 100 µM (inactive)
